// provenance: ChEMBL document CHEMBL2016576

assay: Clearance in Sprague-Dawley rat at 1 mg/kg, iv and 3 mg/kg, po after 72 hrs; type: ADME, organism-based; conditions: in vivo
Listing: clearance of selected compounds
Phrase the answer as number then unit, nothing more needed.

CC[C@@H]1C[C@H](N(Cc2cc(C(F)(F)F)cc(C(F)(F)F)c2)c2nnn(C)n2)c2nc(C(F)(F)F)ccc2N1C(=O)OC(C)C	5.5 mL/min/kg

Task: Return reported clearance; argument: CC[C@@H]1C[C@H](N(Cc2cc(C(F)(F)F)cc(C(F)(F)F)c2)c2nnn(C)n2)c2nc(C)ccc2N1C(=O)OC(C)C
Result: 16.4 mL/min/kg

====

assay: Clearance in beagle dog at 1 mg/kg, iv and 3 mg/kg, po after 72 hrs; assay type: ADME, organism-based, Canis lupus familiaris; conditions: in vivo
QUANTITY MEASURED: clearance (mL/min/kg)
Give the quantity in mL/min/kg, number only.

Task: Return reported clearance; argument: CC[C@@H]1C[C@H](N(Cc2cc(C(F)(F)F)cc(C(F)(F)F)c2)c2nnn(C)n2)c2nc(C(F)(F)F)ccc2N1C(=O)OC(C)C
Result: 1.5

====

biological target: Cholesteryl ester transfer protein (Homo sapiens, UniProt P11597); assay: Inhibition of CETP in human plasma assessed as reduction in fluorescent intensity by fluorescence analysis
QUANTITY MEASURED: pIC50
pIC50 field: float, defined as -log10 of concentration (mol/L).

Task: Return reported pIC50; argument: CC[C@@H]1C[C@H](N(Cc2cc(C(F)(F)F)cc(C(F)(F)F)c2)C(C)=O)c2nc(C(F)(F)F)ccc2N1C(=O)OC(C)C (racemic)
Result: 6.40

Task: Try this molecule next: CC[C@H]1C[C@@H](N(Cc2cc(C(F)(F)F)cc(C(F)(F)F)c2)c2nnn(C)n2)c2nc(C(F)(F)F)ccc2N1C(=O)OC(C)C
Result: 5.13

====

Listing: pIC50 of selected molecules
target: Cholesteryl ester transfer protein (Homo sapiens, UniProt P11597); test: Inhibition of CETP in human plasma assessed as reduction in fluorescent intensity by fluorescence analysis
pIC50 field: float, defined as -log10 of concentration (mol/L).

// solved cases for pIC50 follow
CCOC(=O)N1c2ccc(C(F)(F)F)nc2[C@@H](N(Cc2cc(C(F)(F)F)cc(C(F)(F)F)c2)c2nnn(C)n2)C[C@H]1CC	7.54
CC[C@@H]1C[C@H](N(Cc2cc(Cl)cc(C(F)(F)F)c2)c2nnn(C)n2)c2nc(C(F)(F)F)ccc2N1C(=O)OC(C)C	7.70
CC[C@@H]1C[C@H](N(Cc2cc(C(F)(F)F)cc(C(F)(F)F)c2)c2nnn(C)n2)c2nc(C(F)(F)F)ccc2N1C(=O)OCCO	6.97
CC[C@@H]1C[C@H](N(Cc2cc(C#N)cc(C(F)(F)F)c2)c2nnn(C)n2)c2nc(C)ccc2N1C(=O)OC(C)C	7.68
CC(=O)N(Cc1cc(C(F)(F)F)cc(C(F)(F)F)c1)[C@H]1C[C@@H](C)N(C(=O)OC(C)C)c2ccc(C(F)(F)F)nc21 (racemic)	5.98

Task: Return reported pIC50; argument: CCNc1ccc2c(n1)[C@@H](N(Cc1cc(C(F)(F)F)cc(C(F)(F)F)c1)c1nnn(C)n1)C[C@@H](CC)N2C(=O)OC(C)C
Result: 6.23

====

Target: Cholesteryl ester transfer protein (Homo sapiens, UniProt P11597)
Sequence (P11597 whole entry): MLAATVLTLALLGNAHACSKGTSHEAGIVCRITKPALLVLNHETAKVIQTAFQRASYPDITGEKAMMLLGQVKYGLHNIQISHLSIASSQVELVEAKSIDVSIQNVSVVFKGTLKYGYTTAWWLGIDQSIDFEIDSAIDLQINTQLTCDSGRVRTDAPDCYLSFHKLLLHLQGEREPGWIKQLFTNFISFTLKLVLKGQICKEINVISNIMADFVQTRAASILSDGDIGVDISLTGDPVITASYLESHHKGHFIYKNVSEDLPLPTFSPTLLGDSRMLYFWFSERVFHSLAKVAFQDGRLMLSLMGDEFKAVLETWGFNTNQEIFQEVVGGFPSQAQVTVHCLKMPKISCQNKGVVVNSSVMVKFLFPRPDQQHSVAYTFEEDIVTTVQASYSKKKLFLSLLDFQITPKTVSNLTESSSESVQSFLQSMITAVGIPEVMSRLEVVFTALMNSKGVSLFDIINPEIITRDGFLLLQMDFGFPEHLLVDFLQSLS
Assay: Inhibition of CETP in human plasma assessed as reduction in fluorescent intensity by fluorescence analysis
pIC50: −log10 of the molar value.
Decision: pIC50 >= 7 yields 1, all other cases yield 0.

Past entries and their recorded results:
CC[C@@H]1C[C@H](N(Cc2cc(C(F)(F)F)cc(C(F)(F)F)c2)c2nnn(C)n2)c2nc(C)ccc2N1C(=O)OC(C)C	1
CC[C@@H]1C[C@H](N(Cc2cc(C(F)(F)F)cc(C(F)(F)F)c2)C(C)=O)c2nc(C)ccc2N1C(=O)OC(C)C (racemic)	0
CC[C@@H]1C[C@H](N(Cc2cc(F)cc(C(F)(F)F)c2)c2nnn(C)n2)c2nc(C)ccc2N1C(=O)OC(C)C	1

Task: Please check the record CC[C@@H]1C[C@H](N(Cc2cc(C(F)(F)F)cc(C(F)(F)F)c2)c2nnn(C)n2)c2nc(C(F)(F)F)ccc2N1C(=O)OCCN(C)C and state if its pIC50 is at or above 7.
Result: 0

Task: Try this compound next: CC[C@@H]1C[C@H](N(Cc2cc(C(F)(F)F)cc(C(F)(F)F)c2)c2nnn(C)n2)c2nc(C(F)(F)F)ccc2N1C(=O)OC(C)C
Result: 1

Task: Try this compound next: CC[C@@H]1C[C@H](N(Cc2cc(C(F)(F)F)cc(C(F)(F)F)c2)c2nnn(C)n2)c2nc(Br)ccc2N1C(=O)OC(C)C (racemic)
Result: 1

Task: Try this compound next: CC[C@@H]1C[C@H](N(Cc2cc(Cl)cc(Cl)c2)c2nnn(C)n2)c2nc(C)ccc2N1C(=O)OC(C)C
Result: 1

====

biological target: Cholesteryl ester transfer protein (Homo sapiens, UniProt P11597); assay: Inhibition of CETP in human plasma assessed as reduction in fluorescent intensity by fluorescence analysis
QUANTITY MEASURED: IC50

// solved cases for IC50 follow
CC[C@@H]1C[C@H](N(Cc2cc(C(F)(F)F)cc(C(F)(F)F)c2)c2nnn(C)n2)c2nc(C(F)(F)F)ccc2N1C(=O)OCC(C)(C)C(=O)O	139 nM
CC[C@@H]1C[C@H](N(Cc2cc(C(F)(F)F)cc(C(F)(F)F)c2)c2cc(C)no2)c2nc(C(F)(F)F)ccc2N1C(=O)OC(C)C (racemic)	154 nM

Task: Return reported IC50; argument: CC[C@@H]1C[C@H](N(Cc2cc(C(F)(F)F)cc(C(F)(F)F)c2)c2nnn(C)n2)c2nc(OC)ccc2N1C(=O)OC(C)C (racemic)
Result: 134 nM

Task: Try this molecule next: CC[C@@H]1C[C@H](N(Cc2cc(C(F)(F)F)cc(C(F)(F)F)c2)c2nnn(CCN)n2)c2nc(C(F)(F)F)ccc2N1C(=O)OC(C)C (racemic)
Result: 66 nM
